# assay.procedure: chemical genetic growth profiling, strain panel (AID 1159580);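 further: tested at 20 µM; growth read once vehicle control cultures reached saturation at 30 °C; 1 = growth at the plate median or of vehicle wells; lower values mean less growth of the strain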
# recorded.conditions: S. cerevisiae deletion strains, growth OD, locus YMR307W, strain GAS1, hits give low values
Among all 5,500 compounds or so, about 2,000 (36%) were called active. Another 18% or so got no clear call; they are omitted. The list shows a part of the results.
outcome.measure: normalized growth

compound	recorded.value
COc1c(C(=O)O)ccc2c1CCC(C)(C)O2	1.03
CCOC(=O)CCCCCCCCCCCCC1C=CCC1 (centres undefined)	0.12
Nc1nc2ncc(CNc3ccc(C(=O)N[C@@H](CCC(=O)O)C(=O)O)cc3)nc2c(=O)[nH]1	1.19
COC(=O)[C@@H](N)CCCN=C(N)N[N+](=O)[O-]	0.986
Cc1cccc(CN2CCN(C(c3ccccc3)c3ccc(Cl)cc3)CC2)c1 (centres undefined)	0.611
CO[C@@H]1[C@@H](O[C@@H]2O[C@H](C)[C@@H](O[C@H]3C[C@@](C)(O)[C@H](O)[C@H](C)O3)[C@H](N(C)C)[C@H]2O)[C@@H](CC=O)C[C@@H](C)[C@@H](O[C@H]2CC[C@H](N(C)C)[C@@H](C)O2)/C=C/C=C/C[C@H](C)OC(=O)C[C@H]1O	0.959
NC(=O)c1cc[n+](CC2=C(C(=O)O)N3C(=O)C(NC(=O)C(c4ccccc4)S(=O)(=O)[O-])C3SC2)cc1 (centres undefined)	0.883
NC(=O)c1cnccn1	1.01
Oc1cc(O)cc(/C=C/c2ccc(O)c(O)c2)c1	0.979
COc1ccc(-c2cc(C(F)F)nn2-c2ccc(S(N)(=O)=O)cc2)cc1F	1.04
CCn1cc(C(=O)O)c(=O)c2cnc(N3CCCC3)nc21	1.06
Cc1onc(-c2ccccc2Cl)c1C(=O)Nc1ccc2c(c1)OCO2	1.01
CCn1cc(C(=O)O)c(=O)c2ccc(Cc3ccccc3)nc21	1
CC1=C(/C=C/C(C)=C/C=C/C(C)=C/CO)C(C)(C)CCC1	0.982
COS(C)(=O)=O	1.05
CC1=C(/C=C/C(C)=C/C=C/C(C)=C/C=C/C=C(C)/C=C/C=C(C)/C=C/C2=C(C)CCCC2(C)C)C(C)(C)CCC1	1.06
CC(=O)OC/C=C(C)/C=C/C=C(C)/C=C/C1=C(C)CCCC1(C)C	0.898
Oc1cc(O)cc(/C=C/c2ccccc2)c1	1
NC1CCN(c2cccc(Cl)n2)CC1	1.02
COc1ccc(C[C@H](N)C(=O)N[C@@H]2[C@@H](CO)OC(n3cnc4c(N(C)C)ncnc43)[C@@H]2O)cc1 (some centres undefined)	1.06
Fc1cccc(Cl)c1Cn1nnc(N2CCCCC2)n1	0.825
NC(=O)CCSCCC(N)=O	1.09
CCOC(=O)C1=CC2(CC)CCCN3CCc4c(n1c1ccccc41)C32 (centres undefined)	1.01
C/C=C/c1ccc(OC)cc1	0.968
CN(Cc1cnc2nc(N)nc(N)c2n1)c1ccc(C(=O)NC(CCC(=O)O)C(=O)O)cc1 (centres undefined)	1.02
O=C(O)CCCCCCCCCCCCC1C=CCC1 (centres undefined)	1.13
CC[C@]12CCCN3CCc4c(n(c5ccccc45)C(=O)C1)[C@@H]32	0.685
CC1(C)C2CC(=O)O[C@@]3(C)C4=CC(=O)O[C@@H](c5ccoc5)[C@]4(C)CCC3[C@@]2(C)C=C[C@H]1O (some centres undefined)	0.922
CC[C@]12CCCN3CCc4c(n(c5ccccc45)[C@](O)(C(=O)OC)C1)[C@@H]32	0.967
CCCCC(CC)CN=C(N)NC(N)=NCCCCCCN=C(N)NC(N)=NCC(CC)CCCC (centres undefined)	0.118
c1ccc2[nH]c(-c3cscn3)nc2c1	0.928
CCOC(N)=O	1.02
O=C(O)CC[C@@H](NC(=O)c1ccccc1C(=O)O)C(=O)O	1
COc1ccccc1NC(=O)Nc1nc(-c2cccnc2)nc2ccccc12	1.02
CCn1cc(C(=O)O)c(=O)c2cnc(N3CCNCC3)nc21	1.01
CC1=C(/C=C/C(C)=C/C=C/C(C)=C/C(=O)O)C(C)(C)CCC1	1.02
O=C(O)CCCCC1SCC2NC(=O)NC21 (centres undefined)	1.01
CCN1C(=O)C=CC1=O	1.02
O=c1cc(O)cc(/C=C/c2ccc(O)c(O)c2)o1	1.01
CSc1nc2ccc(NC(=O)c3c(-c4ccccc4)noc3C)cc2s1	0.961
CCOC(=O)C1=C[C@]2(CC)CCCN3CCc4c(n1c1ccccc41)[C@@H]32	1.01
c1ccc(CSC2=NCCCN2)cc1	1
CC1=C(/C=C/C(C)=C/C=C/C(C)=C/C(=O)Nc2ccc(O)cc2)C(C)(C)CCC1	0.989
Nc1nc2c(c(=O)[nH]1)N(C=O)C(CNc1ccc(C(=O)N[C@@H](CCC(=O)O)C(=O)O)cc1)CN2 (some centres undefined)	0.961
